- System: MCF7
- ASSAY_SUMMARY: Cytotoxicity against human MCF7 cells after 48 hrs by MTT assay
- Type: functional, cell-based
- ASSAY_CONTEXT: MCF7, 48 h
// classify: if (IC50 < 2000 nM) MET else NOT MET

Sample answers from the record:
COc1ccc(/C=C\c2cc(OC)c(OC)c(OC)c2)cc1NC(=O)c1cn(Cc2ccc(F)cc2)nn1; MET
COc1ccc(/C=C\c2cc(OC)c(OC)c(OC)c2)cc1NC(=O)c1cn(Cc2cc(OC)c(OC)c(OC)c2)nn1; MET
COc1cccc(Cn2cc(C(=O)Nc3cc(/C=C\c4cc(OC)c(OC)c(OC)c4)ccc3OC)nn2)c1; MET
COc1ccc(Cn2cc(C(=O)Nc3cc(/C=C\c4cc(OC)c(OC)c(OC)c4)ccc3OC)nn2)cc1; NOT MET
COc1cc(/C=C\c2cc(OC)c(OC)c(OC)c2)cc(NC(=O)c2cn(Cc3cccc(Oc4ccccc4)c3)nn2)c1OC; NOT MET

Q. Field: below-cutoff. Rule: recorded IC50 strictly less than 2000 nM. Subject: `COc1cccc(Cn2cc(C(=O)Nc3cc(/C=C\c4cc(OC)c(OC)c(OC)c4)cc(OC)c3OC)nn2)c1`
A. MET

Q. Another compound: `COc1ccc(/C=C\c2cc(OC)c(OC)c(OC)c2)c(NC(=O)c2cn(Cc3ccc(F)cc3)nn2)c1O`
A. MET

====

- TARGET_UNDER_TEST: Tubulin (Homo sapiens) (UniProt P68371+Q9H4B7+P0DPH7+P68366+Q13509+Q71U36+P04350+Q3ZCM7+P07437+P68363+Q9BQE3+Q6PEY2+Q13885+Q9BVA1+Q9BUF5)
- ASSAY_SUMMARY: Binding affinity to tubulin (unknown origin) incubated for 60 mins by colchicine competition assay
- Assay type: protein-complex assay
Activity calls are given as the source filed them. The calls are words filed in the database; no cut-off is given here.
Could you please pick one outcome from this set? 1.0 (active), 0.0 (inactive)

COc1ccc(/C=C\c2cc(OC)c(OC)c(OC)c2)cc1O; 1.0
COc1ccc(/C=C\c2cc(OC)c(OC)c(OC)c2)cc1NC(=O)c1cn(Cc2ccc(F)cc2)nn1; 1.0

Q. Answer briefly: the call reported for `CC(=O)O[C@H]1C(=O)[C@@]2(C)[C@H]([C@H](OC(=O)c3ccccc3)[C@]3(O)C[C@H](OC(=O)[C@H](O)[C@@H](NC(=O)c4ccccc4)c4ccccc4)C(C)=C1C3(C)C)[C@]1(OC(C)=O)CO[C@@H]1C[C@@H]2O` in this assay.
A. 0.0

Q. Now the same for `COc1ccc(Cn2cc(C(=O)Nc3cc(/C=C\c4cc(OC)c(OC)c(OC)c4)cc(OC)c3OC)nn2)cc1`
A. 1.0
